- Test System: hRIPK1 (aa 1-375) fusion protein (Homo sapiens)
- Construct: hRIPK1 (aa 1-375) fusion protein
- Sequence (Q13546 1-375): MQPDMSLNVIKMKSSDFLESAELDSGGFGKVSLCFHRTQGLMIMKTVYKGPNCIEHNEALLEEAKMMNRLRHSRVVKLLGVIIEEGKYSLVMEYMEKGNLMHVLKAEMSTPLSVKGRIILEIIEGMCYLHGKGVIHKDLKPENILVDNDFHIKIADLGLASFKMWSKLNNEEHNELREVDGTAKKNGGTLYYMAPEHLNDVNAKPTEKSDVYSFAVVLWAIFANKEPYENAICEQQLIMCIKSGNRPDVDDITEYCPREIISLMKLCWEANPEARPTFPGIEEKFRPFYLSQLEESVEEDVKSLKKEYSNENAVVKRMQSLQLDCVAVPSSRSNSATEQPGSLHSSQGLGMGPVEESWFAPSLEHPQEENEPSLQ
- Protocol Notes: Receptor-Interacting Protein Kinase 1 inhibition, ADP Glo assay (conversion of ATP to ADP due to autophosphorylation)
- Condition Context: ATP 50 μM, 30 min preincubation, 240 min incubation, room temperature, DMSO 1%
Some compounds, each annotated with its measured pIC50.
Expect pIC50 as a plain number equal to -log10 of the molar concentration.

Compound: N#Cc1cc(F)cc(N[C@H]2C[C@@H](C(=O)N3OCC[C@H]3c3cccc(F)c3)C2)c1
pIC50: 7.28

Compound: NC(=O)c1cc(OC[C@H]2CC[C@@H](C(=O)N3OCC[C@H]3c3cc(F)cc(F)c3)CC2)ncn1
pIC50: 7.10

Compound: N#Cc1cc(O[C@H]2C[C@@H](C(=O)N3OCC[C@H]3c3cc(F)cc(F)c3)C2)ccc1F
pIC50: 7.74

Compound: NC(=O)c1cc(OCC2CCC(C(=O)N3OCC[C@H]3c3cc(F)cc(F)c3)C2)ncn1 (single isomer, unassigned; stereoisomer 4) [Compound 121]
pIC50: 7.52

Compound: NC(=O)c1cc(OCC2CCCC(C(=O)N3OCC[C@H]3c3cc(F)cc(F)c3)CC2)ncn1 (single isomer, unassigned; stereoisomer 3) [Compound 124]
pIC50: 7.68

Compound: Cc1cc(C)n(-c2ccc(OC[C@H]3CC[C@H](C(=O)N4OCC[C@H]4c4cc(F)cc(F)c4)CC3)c(F)c2)n1
pIC50: 7.55

Compound: N#Cc1cc(F)cc(OC[C@H]2CC[C@@H](C(=O)N3OCC[C@H]3c3cc(F)cc(F)c3)CC2)c1
pIC50: 7.74

Compound: N#Cc1cc(F)cc([C@@H]2CCON2C(=O)[C@H]2C[C@@H](Nc3nccc(C#N)n3)C2)c1
pIC50: 7.18

Bench note, hRIPK1 (aa 1-375) fusion protein (Homo sapiens): NC(=O)c1ccnc(N[C@H]2C[C@H](C(=O)N3OCC[C@H]3c3cc(F)cc(F)c3)C2)n1 , pIC50 reads 7.05

Bench note, hRIPK1 (aa 1-375) fusion protein (Homo sapiens): O=C([C@H]1C[C@@H](n2ncc3cc(F)ccc32)C1)N1OCC[C@H]1c1cc(F)cc(F)c1 , pIC50 reads 7.33
